Provenance of the data: the supplement of paper PMC11061612

# Test system: HuP-T4 (Pancreatic Carcinoma);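 note: after 72 h of two-drug dosing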
# PROCEDURE_DETAILS: Bliss excess, mean over the matrix (fraction); higher = more synergy
MEASUREMENT_KIND: Bliss excess
The reply should be a number, written without any unit.

Memo: C[C@@H](c1ccc2nccn2c1)n1nnc2ncc(-c3cnn(C)c3)nc21 [Savolitinib] + Cc1c2c(nn1C)CSCc1cc(n(C)n1)CSc1cc(c3ccccc3c1)OCCCc1c(C(=O)O)n(C)c3c-2c(Cl)ccc13 [AZD5991] (first compound max 1 µM, 7x7, partner max 1 µM) , reported Bliss excess: -0.0618

Memo: C=CCn1c(=O)c2cnc(Nc3ccc(N4CCN(C)CC4)cc3)nc2n1-c1cccc(C(C)(C)O)n1 [AZD1775] + C[C@@H]1COCCN1C2=NC(=NC(=C2)C3(CC3)[S@](=N)(=O)C)C4=C5C=CNC5=NC=C4 [AZD6738] (first compound max 1 µM, partner max 10 µM) , reported Bliss excess: 0.0849

Memo: CC(=O)c1c(C)c2cnc(Nc3ccc(N4CCNCC4)cn3)nc2n(C2CCCC2)c1=O [Palbociclib] + CC1(C)CCC(CN2CCN(c3ccc(C(=O)NS(=O)(=O)c4ccc(NCC5CCOCC5)c([N+](=O)[O-])c4)c(Oc4cnc5[nH]ccc5c4)c3)CC2)=C(c2ccc(Cl)cc2)C1 [Venetoclax] (first compound max 10 µM, 7x7, partner max 1 µM) , reported Bliss excess: -0.0281

Memo: C[C@@H]1COCCN1c1cc(C2([S@](C)(=N)=O)CC2)nc(-c2ccnc3[nH]ccc23)n1 [AZD6738] + O=C(c1cc(Cc2n[nH]c(=O)c3ccccc23)ccc1F)N1CCN(C(=O)C2CC2)CC1 [Olaparib] (first compound max 10 µM, 7x7, partner max 10 µM) , reported Bliss excess: -0.0037

Memo: Cn1cnc2c(F)c(Nc3ccc(Br)cc3Cl)c(C(=O)NOCCO)cc21 [Selumetinib] + CCN(CCO)CCCOc1ccc2c(Nc3cc(CC(=O)Nc4cccc(F)c4)[nH]n3)ncnc2c1 [AZD2811] (first compound max 10 µM, 7x7, partner max 1 µM) , reported Bliss excess: -0.0161

Memo: Cc1c2c(nn1C)CSCc1cc(n(C)n1)CSc1cc(c3ccccc3c1)OCCCc1c(C(=O)O)n(C)c3c-2c(Cl)ccc13 [AZD5991] + C[C@@H](Nc1cc(F)cc(F)c1)c1cc(C(=O)N(C)C)cc2c(=O)cc(N3CCOCC3)oc12 [AZD8186] (first compound max 1 µM, 7x7, partner max 3 µM) , reported Bliss excess: 0.0505

Memo: CN(CCO)CC[C@H](CSc1ccccc1)Nc1ccc(S(=O)(=O)NC(=O)c2ccc(N3CCC([C@@H](O)c4ccccc4-c4ccc(Cl)cc4)CC3)cc2)cc1S(=O)(=O)C(F)(F)F [AZD4320] + CN(C)CCCOc1ccc(-c2ccc3ncc4c(c3c2)n(C2CCOCC2)c(=O)n4C)cn1 [AZD0156] (first compound max 1 µM, 7x7, partner max 1 µM) , reported Bliss excess: -0.0268

Memo: Cc1c2c(nn1C)CSCc1cc(n(C)n1)CSc1cc(c3ccccc3c1)OCCCc1c(C(=O)O)n(C)c3c-2c(Cl)ccc13 [AZD5991] + CN(C)CCCOc1ccc(-c2ccc3ncc4c(c3c2)n(C2CCOCC2)c(=O)n4C)cn1 [AZD0156] (first compound max 1 µM, 7x7, partner max 1 µM) , reported Bliss excess: 0.0351

Memo: CCN(CCO)CCCOc1ccc2c(Nc3cc(CC(=O)Nc4cccc(F)c4)[nH]n3)ncnc2c1 [AZD2811] + C=CCn1c(=O)c2cnc(Nc3ccc(N4CCN(C)CC4)cc3)nc2n1-c1cccc(C(C)(C)O)n1 [AZD1775] (first compound max 1 µM, partner max 1 µM) , reported Bliss excess: 0.0274
